target: human CD40 (human, UniProt P25942 21-193, limits assumed); assay: Octet
Sequence (P25942 21-193 limits assumed): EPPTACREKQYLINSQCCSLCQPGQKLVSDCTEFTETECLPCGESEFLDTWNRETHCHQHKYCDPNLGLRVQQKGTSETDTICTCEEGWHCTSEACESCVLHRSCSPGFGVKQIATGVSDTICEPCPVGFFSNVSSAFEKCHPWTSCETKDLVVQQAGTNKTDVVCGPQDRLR
Answer each item with its documented kon.

Below are worked cases with known answers.
33H6 (antibody, IgG4, V domains shown, also called 4883-1) VH: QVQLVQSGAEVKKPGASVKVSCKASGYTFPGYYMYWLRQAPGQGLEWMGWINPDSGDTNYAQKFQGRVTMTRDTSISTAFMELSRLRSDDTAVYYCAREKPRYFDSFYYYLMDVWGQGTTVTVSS VL: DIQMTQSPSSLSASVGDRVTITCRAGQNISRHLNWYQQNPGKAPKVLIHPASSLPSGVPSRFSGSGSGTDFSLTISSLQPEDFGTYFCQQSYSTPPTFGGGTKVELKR: 509000 M⁻¹ s⁻¹
33H9 (antibody, IgG4, V domains shown, also called 4897-1) VH: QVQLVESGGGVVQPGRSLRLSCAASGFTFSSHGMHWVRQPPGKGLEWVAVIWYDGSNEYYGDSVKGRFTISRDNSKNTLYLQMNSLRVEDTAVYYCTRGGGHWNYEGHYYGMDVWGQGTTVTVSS VL: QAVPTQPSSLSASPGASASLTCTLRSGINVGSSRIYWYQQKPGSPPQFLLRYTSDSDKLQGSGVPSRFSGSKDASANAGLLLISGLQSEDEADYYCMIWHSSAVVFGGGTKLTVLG: 407000 M⁻¹ s⁻¹
36F3 (antibody, IgG4, V domains shown, also called 4891-1) VH: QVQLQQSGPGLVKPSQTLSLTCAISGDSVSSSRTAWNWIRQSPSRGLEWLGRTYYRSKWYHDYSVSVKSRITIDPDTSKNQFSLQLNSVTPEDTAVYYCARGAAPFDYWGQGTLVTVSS VL: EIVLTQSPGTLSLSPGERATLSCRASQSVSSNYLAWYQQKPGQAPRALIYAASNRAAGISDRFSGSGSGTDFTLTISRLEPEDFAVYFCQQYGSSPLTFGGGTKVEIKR: 64500 M⁻¹ s⁻¹
29H10 (antibody, V domains shown, also called 4877-1) VH: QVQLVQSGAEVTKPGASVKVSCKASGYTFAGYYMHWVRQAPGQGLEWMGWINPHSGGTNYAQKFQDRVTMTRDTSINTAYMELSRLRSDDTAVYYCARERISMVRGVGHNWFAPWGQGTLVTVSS VL: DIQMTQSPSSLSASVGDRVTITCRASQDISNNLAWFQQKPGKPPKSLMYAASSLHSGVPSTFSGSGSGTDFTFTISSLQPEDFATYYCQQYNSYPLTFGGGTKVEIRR: 398000 M⁻¹ s⁻¹
30A12 (antibody, IgG4, V domains shown, also called 4878-1) VH: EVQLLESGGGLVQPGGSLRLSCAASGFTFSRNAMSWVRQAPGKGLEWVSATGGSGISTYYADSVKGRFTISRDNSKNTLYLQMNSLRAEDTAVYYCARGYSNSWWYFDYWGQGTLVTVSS VL: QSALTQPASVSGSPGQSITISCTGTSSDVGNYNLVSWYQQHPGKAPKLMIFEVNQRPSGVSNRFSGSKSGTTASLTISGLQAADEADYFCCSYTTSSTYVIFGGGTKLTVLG: 533000 M⁻¹ s⁻¹
37A6 (antibody, IgG4, V domains shown, also called 4865-1) VH: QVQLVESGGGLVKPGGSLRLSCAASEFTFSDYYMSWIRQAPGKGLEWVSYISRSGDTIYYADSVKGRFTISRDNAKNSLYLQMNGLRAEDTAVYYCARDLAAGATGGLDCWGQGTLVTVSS VL: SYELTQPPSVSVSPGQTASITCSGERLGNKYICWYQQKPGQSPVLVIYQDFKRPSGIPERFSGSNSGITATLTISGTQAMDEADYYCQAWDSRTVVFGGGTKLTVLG: 612000 M⁻¹ s⁻¹

Could you report kon for every entry in the following list?
1. 4G7 (antibody, IgG4, V domains shown, also called 4869-1) VH: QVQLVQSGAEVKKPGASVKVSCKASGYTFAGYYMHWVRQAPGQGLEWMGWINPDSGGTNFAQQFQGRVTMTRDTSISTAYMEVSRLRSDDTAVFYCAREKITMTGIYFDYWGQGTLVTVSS VL: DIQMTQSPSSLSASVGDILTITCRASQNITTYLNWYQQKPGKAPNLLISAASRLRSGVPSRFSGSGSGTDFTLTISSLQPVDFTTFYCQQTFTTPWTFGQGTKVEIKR
2. 39C2 (antibody, IgG4, V domains shown, also called 4887-1) VH: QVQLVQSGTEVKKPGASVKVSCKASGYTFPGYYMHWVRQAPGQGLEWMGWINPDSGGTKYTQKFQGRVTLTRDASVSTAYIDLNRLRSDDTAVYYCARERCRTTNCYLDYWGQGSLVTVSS VL: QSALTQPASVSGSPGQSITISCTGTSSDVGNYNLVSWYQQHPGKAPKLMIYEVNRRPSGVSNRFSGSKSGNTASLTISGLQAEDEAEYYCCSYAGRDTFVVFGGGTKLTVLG
3. 35F11 (antibody, IgG4, V domains shown, also called 4868-1) VH: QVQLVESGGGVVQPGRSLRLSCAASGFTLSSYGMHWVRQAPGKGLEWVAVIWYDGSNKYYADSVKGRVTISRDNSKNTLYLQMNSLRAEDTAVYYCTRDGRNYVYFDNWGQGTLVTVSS VL: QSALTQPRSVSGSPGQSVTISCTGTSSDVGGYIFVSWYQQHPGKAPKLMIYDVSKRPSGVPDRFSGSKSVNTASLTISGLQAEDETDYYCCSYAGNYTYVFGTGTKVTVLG

Reply text:
1: 1.23e+06 M⁻¹ s⁻¹; 2: 599000 M⁻¹ s⁻¹; 3: 556000 M⁻¹ s⁻¹
